The reported measurements were obtained from the supplement of paper PMC6763611.

# Test system: Plasmodium falciparum NF54
# test_method_notes: growth inhibition relative to untreated control; higher = more inhibition
# run_parameters: 5 µM; minimal medium (MM); 72 h
Consider the following molecules and their measured growth inhibition readings.
measure: growth inhibition (%)

In [3]: df
Out[3]:
                         chemical_structure  qualifier_symbol  reported_value
0  c1ccc(Oc2ccc(-c3cc(C4CCOCC4)[nH]n3)cc2)cc1                 <               0
1  CC(=O)Nc1ccc(NC(=O)c2cc(-c3cc(Cl)ccc3O)n[nH]2)cc1                 =            90.8
2  Cc1cc(C)cc(COc2ccc3c(C)c(CCC(=O)O)c(=O)oc3c2C)c1                 <               0
3  O=S(=O)(c1ccc(Cl)cc1)N1CCN(C(=S)NCc2ccco2)CC1                 =            92.6
4  CS(=O)(=O)N1CCC(CCn2nc(Cc3cccc4ccccc34)c3c(N)ncnc32)CC1                 <               0
5  Cc1ccccc1CN1CCC(O)(c2ccc(Cl)c(C(F)(F)F)c2)CC1                 =            76.2
6  COc1nc2ccc(Br)cc2cc1[C@@H](c1ccccc1)[C@@](O)(CCN(C)C)c1cccc2ccccc12                 =            88.2
7  CC(=O)NC[C@H]1CN(c2ccc(N3CCSCC3)c(F)c2)C(=O)O1                 <               0
8  CC(C)c1ncc(-c2ccncc2)c([C@H]2CC[C@H](CNC(=O)c3cccnc3)CC2)n1                 =              92
9  COc1cccn2c(C(=O)N3CCCCC3)c(C(F)(F)F)nc12                 <               0

----------
# Test system: Plasmodium falciparum NF54
# test_method_notes: growth inhibition relative to untreated control; higher = more inhibition
# run_parameters: 5 µM; minimal medium (MM); 72 h
So basically: growth inhibition at 50% or higher? That is criterion met. Lower than 50%? That is criterion not met.

>>> print(df.to_string())
                         chemical_structure           category
0  NS(=O)(=O)c1cccc(-c2ccc3ncc(N4CCOCC4)nc3c2)c1      criterion met
1  COc1cc(CN2CCC3(C=Cc4ccccc43)CC2)cc2c1OCO2  criterion not met
2  O=C(Nc1ccc(F)c(-c2nc3cc(-c4ccccc4)cnc3[nH]2)c1)N1CCCC1  criterion not met
3             CCCn1c(CNc2ccccc2O)nc2ccccc21  criterion not met
4       c1coc(CNc2nc(N3CCCCC3)nc3ccccc23)c1      criterion met
5    OCCc1ccc(Nc2nccc(-c3nnc4ccccn34)n2)cc1      criterion met
6  CCOc1ccc2cc(-c3nn(C(C)(C)C)c(N)c3C(N)=O)cnc2c1  criterion not met
7  Clc1ccc(Cl)c(CO[C@H]2CCCC[C@@H]2n2ccnc2)c1  criterion not met
8  O=C(NCc1ccoc1)N1CCN(Cc2ccc3c(c2)OCO3)CC1  criterion not met
9  COc1ccc2nccc(NC(=O)C3CCN(CCc4ccc(Cl)cc4)CC3)c2n1  criterion not met
